experimental.conditions: pH 6.8
observation.type: aqueous solubility (µg/mL)
Numeric answer only, unit µg/mL assumed.

1) Cc1nn(-c2ccc(C(=O)O)cc2C#Cc2ccccc2)c(C)c1C ... 46.4

Query block: Give its aqueous solubility value. Item: COc1ccc(NC(=O)c2snnc2C)c(OC)c1
Result block: 3.67

Query block: Give its aqueous solubility value. Item: Cn1cnnc1CCn1ccnc1-c1cc2ccccc2s1
Result block: 33

----------
Use intrinsic clearance, rat liver microsomes to assign classes; range list: small value = under 30 mL/min/kg, mid value = from 30 mL/min/kg up to 300 mL/min/kg, large value = 300 mL/min/kg and over

Some entries whose results are on file:
1) COc1ccc(-c2ccc(CN(CCN3CCOCC3)Cc3cccnc3)cc2)cc1 ... large value
2) COCCOc1cnc2ccn([C@H](C)c3nnc4c(F)cc(-c5cnn(C)c5)cn34)c(=O)c2c1 ... small value
3) Cc1cc(C)nc(N(C)CC(=O)NC2CC2)n1 ... small value
4) O=C(c1ccc(Oc2ccccc2)cc1Cl)c1c[nH]c2ncnc(N[C@@H]3CC[C@@H](CO)OC3)c12 ... small value
5) Cc1cc(C)cc(C(=O)Nc2nn(C(C)(C)C)cc2C#N)c1 ... mid value

Query block: Hello team, could you let me know which band the following compound falls into: N#Cc1cc(-c2n[nH]c(-c3ccncc3)n2)ccn1
Result block: mid value

Query block: Hello team, could you let me know which band the following compound falls into: O=C(CN1CCc2ccccc21)N1CCC(c2nc3ccccc3[nH]2)CC1
Result block: large value
